Provide the recorded IC50 for the entries that follow.
experiment.description: in vitro

N=C(NO)c1ccc2oc(CCc3cc4cc(C(=N)NO)ccc4o3)cc2c1 [Compound 190] : > 199 µM
CC(C)NC(=N)c1cccc(-c2cc3ccc(C(=N)NC(C)C)cc3o2)c1 [Compound 170] : > 200 µM

Next, consider the following molecule.
Query: GET /values?readout=IC50&item= N=C(NO)c1ccc(-c2cc3ccc(C(=N)NO)cc3o2)cc1 [Compound 181]
Result: > 222 µM

* * *

experiment.description: in vitro
reported.endpoint: log10 IC50 (log10 of the value in µM)
Scale: decimal log of IC50, IC50 in µM.

CC(C)NC(=N)c1ccc(OCCCCCOc2ccc(-c3cc4ccc(C(=N)NC(C)C)cc4o3)cc2)cc1.Cl.Cl [Compound 75, dihydrochloride] : 1.03

Go through the list and state log10 IC50 for each entry.
1. Cl.Cl.N=C(N)c1ccc(OCCCCCOc2ccc(-c3cc4cc(C(=N)N)ccc4o3)cc2)cc1 [Compound 50, dihydrochloride]
2. Cl.Cl.c1cc(OCCCOc2ccc(C3=NCCN3)cc2)cc(-c2cc3ccc(C4=NCCN4)cc3o2)c1 [Compound 58, dihydrochloride]
3. c1cc(C2=NCCN2)cc(-c2cc3cc(C4=NCCN4)ccc3o2)c1
4. CC(C)NC(=N)c1ccc(OCCCCOc2ccc(-c3cc4ccc(C(=N)NC(C)C)cc4o3)cc2)cc1.Cl.Cl [Compound 72, dihydrochloride]
5. Cl.Cl.c1cc(C2=NCCN2)ccc1OCCCCCCOc1ccc(-c2cc3cc(C4=NCCN4)ccc3o2)cc1 [Compound 55, dihydrochloride]
6. Cl.Cl.N=C(N)c1ccc(OCCCCCCOc2cccc(-c3cc4ccc(C(=N)N)cc4o3)c2)cc1 [Compound 65, dihydrochloride]
7. CONC(=N)c1ccc2cc(CCCCCc3cc4ccc(C(=N)NOC)cc4o3)oc2c1

Result:
[0.62, 1.00, 1.53, 1.20, 0.17, 0.64, 1.54]

* * *

Provide the recorded IC50 for the entries that follow.
experiment.description: in vitro
Give bare numbers, in µM.

Please review the entries below; each comes with its answer.
c1cc(OCCCCCCOc2ccc(C3=NCCN3)cc2)cc(-c2cc3cc(C4=NCCN4)ccc3o2)c1 [Compound 43] : 2.46
Cl.Cl.N=C(N)c1ccc(OCCCCOc2cccc(-c3cc4cc(C(=N)N)ccc4o3)c2)cc1 [Compound 35, dihydrochloride] : 8.06

Next, consider the following molecule.
Query: GET /values?readout=IC50&item= Cl.Cl.N=C(N)c1ccc(OCCCCCOc2cccc(-c3cc4ccc(C(=N)N)cc4o3)c2)cc1 [Compound 62, dihydrochloride]
Result: 4.12

* * *

experiment.description: in vitro
Provide the recorded pIC50 for the entries that follow.
Numbers only, as −log10 of the molar value.

N=C(NO)c1ccc2oc(CCCCCc3cc4cc(C(=N)NO)ccc4o3)cc2c1 [Compound 192] : 4.57
CC(C)NC(=N)c1ccc(OCCCOc2ccc(-c3cc4ccc(C(=N)NC(C)C)cc4o3)cc2)cc1.Cl.Cl [Compound 69, dihydrochloride] : 4.30
CC(C)NC(=N)c1ccc(OCCCOc2ccc(-c3cc4cc(C(=N)NC(C)C)ccc4o3)cc2)cc1.Cl.Cl [Compound 45, dihydrochloride] : 4.34
Cl.Cl.c1cc(OCCCCOc2ccc(C3=NCCN3)cc2)cc(-c2cc3cc(C4=NCCN4)ccc3o2)c1 [Compound 37, dihydrochloride] : 5.02
CC(C)NC(=N)c1ccc(OCCCOc2cccc(-c3cc4cc(C(=N)NC(C)C)ccc4o3)c2)cc1.Cl.Cl [Compound 33, dihydrochloride] : 4.58

Go through the list and state pIC50 for each entry.
1. CC(C)NC(=N)c1ccc(OCCCCCCOc2cccc(-c3cc4cc(C(=N)NC(C)C)ccc4o3)c2)cc1.Cl.Cl [Compound 42, dihydrochloride]
2. N=C(NO)c1ccc(OCCCOc2ccc(-c3cc4cc(C(=N)NO)ccc4o3)cc2)cc1 [Compound 182]
3. Cl.Cl.c1cc(OCCCCCCOc2ccc(C3=NCCN3)cc2)cc(-c2cc3ccc(C4=NCCN4)cc3o2)c1 [Compound 67, dihydrochloride]
4. Cl.Cl.N=C(N)c1ccc(OCCCCOc2cccc(-c3cc4ccc(C(=N)N)cc4o3)c2)cc1 [Compound 59, dihydrochloride]
5. N=C(NO)c1ccc2oc(CCCc3cc4cc(C(=N)NO)ccc4o3)cc2c1 [Compound 185]

Result:
[5.13, 5.58, 5.75, 5.12, 4.62]
